Measured IC50 on CYP2D6 (Homo sapiens, UniProt P10635) follows.
Sequence (P10635 whole entry): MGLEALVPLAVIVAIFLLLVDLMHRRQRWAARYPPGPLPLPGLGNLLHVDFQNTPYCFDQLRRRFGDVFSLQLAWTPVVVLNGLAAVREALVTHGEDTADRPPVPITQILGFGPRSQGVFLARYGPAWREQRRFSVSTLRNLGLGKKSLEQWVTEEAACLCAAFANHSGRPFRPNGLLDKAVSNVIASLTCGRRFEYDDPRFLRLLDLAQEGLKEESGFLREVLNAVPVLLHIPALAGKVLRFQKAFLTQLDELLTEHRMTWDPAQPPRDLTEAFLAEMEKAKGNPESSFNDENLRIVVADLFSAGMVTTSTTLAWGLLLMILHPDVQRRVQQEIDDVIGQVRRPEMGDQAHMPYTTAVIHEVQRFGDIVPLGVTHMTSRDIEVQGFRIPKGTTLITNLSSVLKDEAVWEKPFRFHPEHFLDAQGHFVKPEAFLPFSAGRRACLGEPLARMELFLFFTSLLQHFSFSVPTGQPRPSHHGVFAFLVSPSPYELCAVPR
Answer with a number only, understood to be in µM.

IC50 recorded for this compound, O=C1CC(c2cc(-c3c(O)ccc4c(=O)cc(-c5ccc(O)cc5)oc34)c(O)cc2O)Oc2cc(O)cc(O)c21 (stereo not shown) , is 10.6

// recorded IC50 for O=c1cc(-c2ccc(O)c(-c3c(-c4ccc(O)cc4)oc4cc(O)cc(O)c4c3=O)c2)oc2cc(O)cc(O)c12 : 3.2

Entry O=c1cc(-c2ccc(O)c(-c3c(O)cc(O)c4c(=O)cc(-c5ccc(O)cc5)oc34)c2)oc2cc(O)cc(O)c12 , IC50 reported as 2.6

---

Target: CYP2C8 (Homo sapiens)
Test: Inhibition of CYP2C8-catalyzed amodiaquine N-deethylation in pooled human liver microsomes
Type: in vitro ADME
Design: incubation mixtures containing pooled human liver microsomes (HLMs, XTreme 200, XenoTech); tissue XenoTech XTreme 200; host or cells: pooled human liver microsomes
Details: HLMs; amodiaquine 0.1, 0.4, 1 µM; average ± standard error, triplicate
Protocol: The inhibitory potential of the five biflavonoids on the metabolism of nine P450 probe substrates was evaluated using previously developed methods with minor modifications. Biflavonoids were dissolved in methanol. […] After centrifugation at 18,000 g (5 min, 4 °C), aliquots of supernatants were analyzed by LC–MS/MS (Shimadzu LCMS 8060 system, Shimadzu, Kyoto, Japan). […] We analyzed the data with Shimadzu LabSolution LC–MS software. […]
observed-property: pKi
Quick note: pKi values are minus log10 of concentrations in mol/L.

Reported pKi of O=c1cc(-c2ccc(O)c(-c3c(O)cc4oc(-c5ccc(O)cc5)cc(=O)c4c3O)c2)oc2cc(O)cc(O)c12 [robustaflavone] : 7.08

Reported pKi of O=C1CC(c2cc(-c3c(O)ccc4c(=O)cc(-c5ccc(O)cc5)oc34)c(O)cc2O)Oc2cc(O)cc(O)c21 (centres unmarked) [selamariscina A] : 7.74

According to the records, this compound O=c1cc(-c2ccc(O)c(-c3c(O)cc(O)c4c(=O)cc(-c5ccc(O)cc5)oc34)c2)oc2cc(O)cc(O)c12 [amentoflavone] displays pKi of 7.08

Record O=c1cc(-c2ccc(O)c(-c3c(-c4ccc(O)cc4)oc4cc(O)cc(O)c4c3=O)c2)oc2cc(O)cc(O)c12 [taiwaniaflavone] . Reported pKi: 6.85

Entry O=c1cc(-c2ccc(O)cc2)oc2c(-c3c(O)cc(O)c4c(=O)cc(-c5ccc(O)cc5)oc34)c(O)cc(O)c12 [cupressuflavone] — recorded pKi = 6.99

---

Target: CYP2C8 (Homo sapiens, UniProt P10632)
Sequence (P10632 whole entry): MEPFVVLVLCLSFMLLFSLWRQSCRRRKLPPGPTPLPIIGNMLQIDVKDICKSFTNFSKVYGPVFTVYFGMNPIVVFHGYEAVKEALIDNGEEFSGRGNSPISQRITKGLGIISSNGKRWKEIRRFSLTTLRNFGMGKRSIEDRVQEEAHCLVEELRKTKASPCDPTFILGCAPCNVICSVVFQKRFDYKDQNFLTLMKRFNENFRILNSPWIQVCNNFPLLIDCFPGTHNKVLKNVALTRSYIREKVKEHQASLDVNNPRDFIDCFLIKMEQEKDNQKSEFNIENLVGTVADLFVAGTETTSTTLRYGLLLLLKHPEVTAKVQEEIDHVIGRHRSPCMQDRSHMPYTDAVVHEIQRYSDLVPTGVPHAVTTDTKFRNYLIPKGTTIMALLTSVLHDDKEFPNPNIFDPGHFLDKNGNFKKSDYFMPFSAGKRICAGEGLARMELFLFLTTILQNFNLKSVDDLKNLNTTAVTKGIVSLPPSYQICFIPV
Assay: Time-dependent inhibition (IC50 shift) of CYP2C8, amodiaquine, human liver microsomes
Format: in vitro ADME
Set-up: incubation mixtures containing pooled human liver microsomes (HLMs, XTreme 200, XenoTech); tissue XenoTech XTreme 200; host or cells: pooled human liver microsomes
Conditions: no NADPH pre-incubation; read-out: IC50, CYP2C8 amodiaquine, untreated HLMs
observed-property: IC50

The recorded IC50 for O=C1CC(c2cc(-c3c(O)ccc4c(=O)cc(-c5ccc(O)cc5)oc34)c(O)cc2O)Oc2cc(O)cc(O)c21 (stereo not shown) [selamariscina A] is 19 nM

---

Molecular target: CYP2C8 (Homo sapiens, UniProt P10632)
Experiment: Inhibition of CYP2C8-catalyzed amodiaquine N-deethylation in pooled human liver microsomes
Assay type: in vitro ADME
Parameters: incubation mixtures containing pooled human liver microsomes (HLMs, XTreme 200, XenoTech); tissue XenoTech XTreme 200; host or cells: pooled human liver microsomes
Details: HLMs
observed-property: Mode of Inhibition, CYP2C8 amodiaquine

                                   molecule             val
0  O=C1CC(c2cc(-c3c(O)ccc4c(=O)cc(-c5ccc(O)cc5)oc34)c(O)cc2O)Oc2cc(O)cc(O)c21 (centres unmarked)  Noncompetitive
1  O=c1cc(-c2ccc(O)c(-c3c(-c4ccc(O)cc4)oc4cc(O)cc(O)c4c3=O)c2)oc2cc(O)cc(O)c12  Noncompetitive
2  O=c1cc(-c2ccc(O)c(-c3c(O)cc(O)c4c(=O)cc(-c5ccc(O)cc5)oc34)c2)oc2cc(O)cc(O)c12  Noncompetitive
3  O=c1cc(-c2ccc(O)cc2)oc2c(-c3c(O)cc(O)c4c(=O)cc(-c5ccc(O)cc5)oc34)c(O)cc(O)c12  Noncompetitive

Alright, here's another molecule for you.
Reported Mode of Inhibition, CYP2C8 amodiaquine of O=c1cc(-c2ccc(O)c(-c3c(O)cc4oc(-c5ccc(O)cc5)cc(=O)c4c3O)c2)oc2cc(O)cc(O)c12 : Noncompetitive

---

observed-property: IC50

Here O=C1CC(c2cc(-c3c(O)ccc4c(=O)cc(-c5ccc(O)cc5)oc34)c(O)cc2O)Oc2cc(O)cc(O)c21 (stereo not shown) was tested on UGT2B7 (Homo sapiens, UniProt P16662), and its IC50 came to > 50 µM

---

Target: CYP2A6 (Homo sapiens)
Sequence (P11509 1-494): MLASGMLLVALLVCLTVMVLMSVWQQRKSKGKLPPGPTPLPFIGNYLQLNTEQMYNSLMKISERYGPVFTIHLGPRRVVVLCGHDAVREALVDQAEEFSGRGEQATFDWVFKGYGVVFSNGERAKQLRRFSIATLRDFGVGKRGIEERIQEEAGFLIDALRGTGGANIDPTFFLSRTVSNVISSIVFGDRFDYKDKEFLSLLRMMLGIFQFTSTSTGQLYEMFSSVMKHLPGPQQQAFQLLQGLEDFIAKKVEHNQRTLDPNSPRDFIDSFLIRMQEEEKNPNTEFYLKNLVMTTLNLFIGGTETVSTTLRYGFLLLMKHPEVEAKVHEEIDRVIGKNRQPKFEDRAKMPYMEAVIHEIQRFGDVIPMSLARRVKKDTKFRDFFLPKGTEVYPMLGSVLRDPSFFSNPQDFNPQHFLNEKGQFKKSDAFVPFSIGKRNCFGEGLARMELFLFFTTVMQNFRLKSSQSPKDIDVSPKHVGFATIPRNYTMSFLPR
Can you tell me pIC50 for the items I'm about to list?
Bear in mind: pIC50 is minus log10 of a mol/L concentration; give just that figure.

pIC50 reading for O=c1cc(-c2ccc(O)c(-c3c(O)cc4oc(-c5ccc(O)cc5)cc(=O)c4c3O)c2)oc2cc(O)cc(O)c12 [robustaflavone] : 4.93

Given item O=c1cc(-c2ccc(O)c(-c3c(O)cc(O)c4c(=O)cc(-c5ccc(O)cc5)oc34)c2)oc2cc(O)cc(O)c12 [amentoflavone] , the value recorded as its pIC50 is 4.92

---

Target: CYP2C8 (Homo sapiens)
Assay: Inhibition of CYP2C8-catalyzed amodiaquine N-deethylation in pooled human liver microsomes
Format: in vitro ADME
Design: incubation mixtures containing pooled human liver microsomes (HLMs, XTreme 200, XenoTech); tissue XenoTech XTreme 200; host or cells: pooled human liver microsomes
Settings: human, pooled human liver microsomes, probe amodiaquine; inhibitor 5 μM; HLMs
observed-property: inhibition at 10 min, 5 µM

# compound CC(C)(O)c1ccccc1CC[C@@H](SCC1(CC(=O)O)CC1)c1cccc(/C=C/c2ccc3ccc(Cl)cc3n2)c1 [montelukast, reference compound] ; its inhibition at 10 min, 5 µM = 86.1%

---

Target: CYP2C9 (Homo sapiens, UniProt P11712)
Sequence (P11712 whole entry): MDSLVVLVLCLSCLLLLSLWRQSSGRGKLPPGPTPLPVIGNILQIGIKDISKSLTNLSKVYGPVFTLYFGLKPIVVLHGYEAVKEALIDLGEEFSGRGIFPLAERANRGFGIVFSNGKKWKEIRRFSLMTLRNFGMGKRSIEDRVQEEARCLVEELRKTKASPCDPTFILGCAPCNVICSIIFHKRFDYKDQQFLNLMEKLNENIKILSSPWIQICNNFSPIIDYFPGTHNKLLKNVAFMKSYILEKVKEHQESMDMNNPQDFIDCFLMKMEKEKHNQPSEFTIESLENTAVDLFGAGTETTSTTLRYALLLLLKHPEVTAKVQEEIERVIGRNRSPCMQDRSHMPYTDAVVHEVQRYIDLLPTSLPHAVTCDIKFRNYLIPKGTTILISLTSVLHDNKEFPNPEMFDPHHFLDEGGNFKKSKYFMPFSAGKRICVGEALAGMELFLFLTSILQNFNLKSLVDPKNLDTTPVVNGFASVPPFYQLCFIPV
Experiment: Inhibition of CYP2C9-catalyzed diclofenac 4-hydroxylation in pooled human liver microsomes
Format: in vitro ADME
Set-up: incubation mixtures containing pooled human liver microsomes (HLMs, XTreme 200, XenoTech); tissue XenoTech XTreme 200; host or cells: pooled human liver microsomes
Conditions: HLMs; average ± standard error, triplicate
observed-property: Ki (nM)
Express your answer in nM, writing the number without its unit.

Sample O=C1CC(c2cc(-c3c(O)ccc4c(=O)cc(-c5ccc(O)cc5)oc34)c(O)cc2O)Oc2cc(O)cc(O)c21 (stereo not shown) [selamariscina A] ; Ki observed: 32

---

For each record, write down the corresponding pIC50.
Biological target: CYP2B6 (Homo sapiens, UniProt P20813)
Construct: incubation mixtures containing pooled human liver microsomes (HLMs, XTreme 200, XenoTech); tissue XenoTech XTreme 200; host or cells: pooled human liver microsomes
Sequence (P20813 whole entry): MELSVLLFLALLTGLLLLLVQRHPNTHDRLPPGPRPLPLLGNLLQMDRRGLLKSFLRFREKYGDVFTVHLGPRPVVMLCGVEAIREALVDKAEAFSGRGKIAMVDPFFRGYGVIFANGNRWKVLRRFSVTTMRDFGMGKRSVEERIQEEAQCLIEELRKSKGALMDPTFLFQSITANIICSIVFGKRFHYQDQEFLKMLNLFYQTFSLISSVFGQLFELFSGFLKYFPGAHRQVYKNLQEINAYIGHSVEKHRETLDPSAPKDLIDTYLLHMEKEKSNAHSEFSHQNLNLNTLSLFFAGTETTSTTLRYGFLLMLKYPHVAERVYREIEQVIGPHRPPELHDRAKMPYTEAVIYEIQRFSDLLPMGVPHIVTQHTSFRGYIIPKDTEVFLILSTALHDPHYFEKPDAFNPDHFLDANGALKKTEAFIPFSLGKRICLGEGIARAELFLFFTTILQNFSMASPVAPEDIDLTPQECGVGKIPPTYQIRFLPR
Test: Inhibition of CYP2B6-catalyzed bupropion hydroxylation in pooled human liver microsomes
Assay type: in vitro ADME
Details: substrate bupropion 50 µM; pooled HLMs; read-out: IC50, P450 2B6
Lab note: report pIC50 as minus log10 of the concentration in molar units, number only.

response.value for O=c1cc(-c2ccc(O)c(-c3c(O)cc4oc(-c5ccc(O)cc5)cc(=O)c4c3O)c2)oc2cc(O)cc(O)c12 (field: pIC50) = 5.24

The compound listed as O=c1cc(-c2ccc(O)cc2)oc2c(-c3c(O)cc(O)c4c(=O)cc(-c5ccc(O)cc5)oc34)c(O)cc(O)c12 shows pIC50 equal to 5.17

Per the record, O=c1cc(-c2ccc(O)c(-c3c(-c4ccc(O)cc4)oc4cc(O)cc(O)c4c3=O)c2)oc2cc(O)cc(O)c12 has pIC50 of 5.19

Kindly note the recorded pIC50 for O=C1CC(c2cc(-c3c(O)ccc4c(=O)cc(-c5ccc(O)cc5)oc34)c(O)cc2O)Oc2cc(O)cc(O)c21 (centres unmarked) , which is 5.28
